test system: 362531-283-R-J2-PDC complex spheroid viability; assay: Anticancer human tumor 362531-283-R-J2-PDC patient-derived colon adenocarcinoma cell line growth inhibition [RAS]; details: second compound 0.03 µM; first compound 1 µM; stronger effect = lower value
reported property: viability, T/C (%)
Field format: number, assumed %, no unit text.

1) CCN1CCN(Cc2ccc(Nc3ncc(F)c(-c4cc(F)c5nc(C)n(C(C)C)c5c4)n3)nc2)CC1 + CCn1c(-c2cccnc2C(C)OC)c2c3cc(ccc31)N1CCOC(CC(NC(=O)C(C(C)C)N(C)C(=O)C3(F)CCN(C(=O)C#CC(C)(C)N(C)C)CC3)C(=O)N3CCCC(N3)C(=O)OCC(C)(C)C2)C1 = 43.4

Kindly consider the entry below.
# lookup: C=CC(=O)Nc1cc(Nc2nccc(-c3cn(C)c4ccccc34)n2)c(OC)cc1N(C)CCN(C)C + CCn1c(-c2cc(N3CCN(C)CC3)cnc2C(C)OC)c2c3cc(ccc31)-c1csc(n1)CC(NC(=O)C1CC1C)C(=O)N1CCCC(N1)C(=O)OCC(C)(C)C2 on 362531-283-R-J2-PDC complex spheroid viability, viability, T/C = 11.8

###

system: 362531-283-R-J2-PDC complex spheroid viability; test: Anticancer human tumor 362531-283-R-J2-PDC cell line growth inhibition [RAS]; conditions: second compound 0.0949 µM; first compound 0.01 µM; stronger effect = lower value;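 note: spheroids exposed to the agents for 7 days before readout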;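 for viability, T/C: luminescence viability as percent of DMSO vehicle control wells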
Entries annotated with measured viability, T/C
Please reply with the bare figure in % and do not write the unit itself.

Here is how some compounds turned out for viability, T/C.
1. C=CC(=O)Nc1cc(Nc2nccc(-c3cn(C)c4ccccc34)n2)c(OC)cc1N(C)CCN(C)C + CCn1c(-c2cc(N3CCN(C)CC3)cnc2C(C)OC)c2c3cc(ccc31)-c1csc(n1)CC(NC(=O)C1CC1C)C(=O)N1CCCC(N1)C(=O)OCC(C)(C)C2 = 75.4
2. C=CC(=O)Nc1cc(Nc2nccc(-c3cn(C)c4ccccc34)n2)c(OC)cc1N(C)CCN(C)C + CCn1c(-c2cccnc2C(C)OC)c2c3cc(ccc31)N1CCOC(CC(NC(=O)C(C(C)C)N(C)C(=O)C3(F)CCN(C(=O)C#CC(C)(C)N(C)C)CC3)C(=O)N3CCCC(N3)C(=O)OCC(C)(C)C2)C1 = 97.1

In plain terms, C=CC(=O)N1CCN(c2nc(OCC3CCCN3C)nc3c(F)c(-c4nc(N)cc(C)c4C(F)(F)F)c(Cl)cc23)C(C)C1 (centres undefined) + CCn1c(-c2cc(N3CCN(C)CC3)cnc2C(C)OC)c2c3cc(ccc31)-c1csc(n1)CC(NC(=O)C1CC1C)C(=O)N1CCCC(N1)C(=O)OCC(C)(C)C2 has a documented viability, T/C of 87.5

Please fill in: viability, T/C reported for O=C(c1ccc(F)c(F)c1Nc1ccc(I)cc1F)N1CC(O)([C@@H]2CCCCN2)C1 + CCn1c(-c2cc(N3CCN(C)CC3)cnc2C(C)OC)c2c3cc(ccc31)-c1csc(n1)CC(NC(=O)C1CC1C)C(=O)N1CCCC(N1)C(=O)OCC(C)(C)C2 = 96.2

###

system: 362531-283-R-J2-PDC complex spheroid viability; test: Anticancer human tumor 362531-283-R-J2-PDC cell line growth inhibition [RAS]; details: second compound 10 µM; first compound 0.316 µM; stronger effect = lower value;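 note: spheroids exposed to the agents for 7 days before readout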;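 for viability, T/C: luminescence viability as percent of DMSO vehicle control wells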
reported property: viability, T/C (%)
Give just the numeric value; % need not be written.

// worked examples, viability, T/C included
1. CC(=O)OC12COC1CC(O)C1(C)C(=O)C(O)C3=C(C)C(OC(=O)C(O)C(NC(=O)OC(C)(C)C)c4ccccc4)CC(O)(C(OC(=O)c4ccccc4)C21)C3(C)C (stereo not given) + C#Cc1c(F)ccc2cc(O)cc(-c3ncc4c(N5CC6CCC(C5)N6)nc(OCC56CCCN5CC(F)C6)nc4c3F)c12 = 13.5
2. CCC(CC)c1cc(NC2CCC(N)C2)n2nccc2n1 (stereo not given) + C#Cc1c(F)ccc2cc(O)cc(-c3ncc4c(N5CC6CCC(C5)N6)nc(OCC56CCCN5CC(F)C6)nc4c3F)c12 = 58.1
3. C=CC(=O)Nc1cc(Nc2nccc(-c3cn(C)c4ccccc34)n2)c(OC)cc1N(C)CCN(C)C + C#Cc1c(F)ccc2cc(O)cc(-c3ncc4c(N5CC6CCC(C5)N6)nc(OCC56CCCN5CC(F)C6)nc4c3F)c12 = 17.1
4. CC1(O)CCCC1n1c(=O)c(C(F)F)cc2cnc(NC3CCN(S(C)(=O)=O)CC3)nc21 (stereo not given) + C#Cc1c(F)ccc2cc(O)cc(-c3ncc4c(N5CC6CCC(C5)N6)nc(OCC56CCCN5CC(F)C6)nc4c3F)c12 = 29.9

Looking up Cc1nc(N2CCC3(CC2)COC(C)C3N)c(CO)nc1Sc1ccnc(N)c1Cl (stereo not given) + C#Cc1c(F)ccc2cc(O)cc(-c3ncc4c(N5CC6CCC(C5)N6)nc(OCC56CCCN5CC(F)C6)nc4c3F)c12 , I found its viability, T/C recorded as 14.1

###

System: 362531-283-R-J2-PDC complex spheroid viability
Assay: Anticancer human tumor 362531-283-R-J2-PDC cell line growth inhibition [RAS];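 note: spheroids exposed to the agents for 7 days before readout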
Settings: curve of first compound; second compound 0.316 µM
From the text: RAS pathway inhibitors in Combinations in Complex Spheroids A high-throughput screen of multi-cell type tumor spheroids was designed to identify active combinations of RAS pathway inhibitors and targeted small molecules. Complex spheroids include a stromal component modeled by human endothelial cells (HUVEC) and fibroblasts modeled by human mesenchymal stem cells (MSCs). […] Compounds. […] If the clinical Cmax for an agent had not been determined, the highest concentration tested was 10 microM. […]
reported property: pIC50
Kindly note that pIC50 refers to -log10 of the concentration in mol/L and answer with the value alone.

// solved cases for pIC50 follow
1. CCC(CC)c1cc(NC2CCC(N)C2)n2nccc2n1 (stereo not given) + C#Cc1c(F)ccc2cc(O)cc(-c3ncc4c(N5CC6CCC(C5)N6)nc(OCC56CCCN5CC(F)C6)nc4c3F)c12 = 5.29
2. CCc1c2c(nc3ccc(O)cc13)-c1cc3c(c(=O)n1C2)COC(=O)[C@]3(O)CC + C#Cc1c(F)ccc2cc(O)cc(-c3ncc4c(N5CC6CCC(C5)N6)nc(OCC56CCCN5CC(F)C6)nc4c3F)c12 = 7.78
3. Cc1nc(N2CCC3(CC2)COC(C)C3N)c(CO)nc1Sc1ccnc(N)c1Cl (stereo not given) + C#Cc1c(F)ccc2cc(O)cc(-c3ncc4c(N5CC6CCC(C5)N6)nc(OCC56CCCN5CC(F)C6)nc4c3F)c12 = 6.05

We next turn to a different molecule, shown below.
Entry CCc1c2c(nc3ccc(O)cc13)-c1cc3c(c(=O)n1C2)COC(=O)[C@]3(O)CC + C=CC(=O)N1CCN(c2nc(OCC3CCCN3C)nc3c(F)c(-c4nc(N)cc(C)c4C(F)(F)F)c(Cl)cc23)C(C)C1 , pIC50 reported as 7.61

###

Tested on: 362531-283-R-J2-PDC complex spheroid viability
Experiment: Anticancer human tumor 362531-283-R-J2-PDC cell line growth inhibition [RAS];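 note: spheroids exposed to the agents for 7 days before readout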;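 for viability, T/C: luminescence viability as percent of DMSO vehicle control wells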
Conditions: second compound 0.0316 µM; first compound 0.00316 µM; stronger effect = lower value
Source text: RAS pathway inhibitors in Combinations in Complex Spheroids A high-throughput screen of multi-cell type tumor spheroids was designed to identify active combinations of RAS pathway inhibitors and targeted small molecules. Complex spheroids include a stromal component modeled by human endothelial cells (HUVEC) and fibroblasts modeled by human mesenchymal stem cells (MSCs). […] Compounds. […] If the clinical Cmax for an agent had not been determined, the highest concentration tested was 10 microM. […]
reported property: viability, T/C (%)
Note: unit % is implicit; provide only the numeric part.

1. Nc1ccn(C2OC(CO)C(O)C2(F)F)c(=O)n1 (stereo not drawn) + C#Cc1c(F)ccc2cc(O)cc(-c3ncc4c(N5CC6CCC(C5)N6)nc(OCC56CCCN5CC(F)C6)nc4c3F)c12 = 101

get_value(item= C=CC(=O)N1CCN(c2nc(OCC3CCCN3C)nc3c(F)c(-c4nc(N)cc(C)c4C(F)(F)F)c(Cl)cc23)C(C)C1 (stereo not drawn) + C#Cc1c(F)ccc2cc(O)cc(-c3ncc4c(N5CC6CCC(C5)N6)nc(OCC56CCCN5CC(F)C6)nc4c3F)c12 , readout=viability, T/C) returns 98.1

###

tested on: 362531-283-R-J2-PDC complex spheroid viability; assay: Anticancer human tumor 362531-283-R-J2-PDC cell line growth inhibition [RAS]; settings: second compound 0.0316 µM; first compound 0.1 µM; stronger effect = lower value;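 note: spheroids exposed to the agents for 7 days before readout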;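 for viability, T/C: luminescence viability as percent of DMSO vehicle control wells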
reported property: viability, T/C

Use the examples below as a reference point.
1. CC1(O)CCCC1n1c(=O)c(C(F)F)cc2cnc(NC3CCN(S(C)(=O)=O)CC3)nc21 (stereo not drawn) + C=CC(=O)N1CCN(c2nc(OCC3CCCN3C)nc3c(F)c(-c4nc(N)cc(C)c4C(F)(F)F)c(Cl)cc23)C(C)C1 = 93.2%
2. CCC(CC)c1cc(NC2CCC(N)C2)n2nccc2n1 (stereo not drawn) + C#Cc1c(F)ccc2cc(O)cc(-c3ncc4c(N5CC6CCC(C5)N6)nc(OCC56CCCN5CC(F)C6)nc4c3F)c12 = 107%
3. Nc1ccn(C2OC(CO)C(O)C2(F)F)c(=O)n1 (stereo not drawn) + C=CC(=O)N1CCN(c2nc(OCC3CCCN3C)nc3c(F)c(-c4nc(N)cc(C)c4C(F)(F)F)c(Cl)cc23)C(C)C1 = 64.9%

Bench note, 362531-283-R-J2-PDC complex spheroid viability: NC1c2ccccc2OC12CCN(c1cnc3c(N4CCCc5ncccc54)n[nH]c3n1)CC2 (stereo not drawn) + C#Cc1c(F)ccc2cc(O)cc(-c3ncc4c(N5CC6CCC(C5)N6)nc(OCC56CCCN5CC(F)C6)nc4c3F)c12 , viability, T/C reads 73.2%

The compound Cc1nc(N2CCC3(CC2)COC(C)C3N)c(CO)nc1Sc1ccnc(N)c1Cl (stereo not drawn) + C#Cc1c(F)ccc2cc(O)cc(-c3ncc4c(N5CC6CCC(C5)N6)nc(OCC56CCCN5CC(F)C6)nc4c3F)c12 , tested on 362531-283-R-J2-PDC complex spheroid viability, showed viability, T/C of 107%

362531-283-R-J2-PDC complex spheroid viability data for Cc1nc(N2CCC3(CC2)COC(C)C3N)c(CO)nc1Sc1ccnc(N)c1Cl (stereo not drawn) + C=CC(=O)N1CCN(c2nc(OCC3CCCN3C)nc3c(F)c(-c4nc(N)cc(C)c4C(F)(F)F)c(Cl)cc23)C(C)C1 ; its viability, T/C: 111%

// assay 362531-283-R-J2-PDC complex spheroid viability, entry C[C@@H](NC(=O)c1ncnc(N)c1Cl)c1ncc(C(=O)Nc2cc(C(F)(F)F)c(Cl)cn2)s1 + C=CC(=O)N1CCN(c2nc(OCC3CCCN3C)nc3c(F)c(-c4nc(N)cc(C)c4C(F)(F)F)c(Cl)cc23)C(C)C1 , viability, T/C value = 99.7%

Here C=CC(=O)Nc1cc(Nc2nccc(-c3cn(C)c4ccccc34)n2)c(OC)cc1N(C)CCN(C)C + C#Cc1c(F)ccc2cc(O)cc(-c3ncc4c(N5CC6CCC(C5)N6)nc(OCC56CCCN5CC(F)C6)nc4c3F)c12 was tested on 362531-283-R-J2-PDC complex spheroid viability, and its viability, T/C came to 89.7%
